target: Transcription factor Sp1 (Homo sapiens) (UniProt P08047); assay: ATG_Sp1_CIS: Attagene CIS-FACTORIAL HepG2 Assay for human Specificity Protein 1 (Sp1) (AID 2282961); settings: HepG2 Sp1 cis-reporter transcription, actives raise or lower the signal
Sequence (P08047 whole entry, looked up): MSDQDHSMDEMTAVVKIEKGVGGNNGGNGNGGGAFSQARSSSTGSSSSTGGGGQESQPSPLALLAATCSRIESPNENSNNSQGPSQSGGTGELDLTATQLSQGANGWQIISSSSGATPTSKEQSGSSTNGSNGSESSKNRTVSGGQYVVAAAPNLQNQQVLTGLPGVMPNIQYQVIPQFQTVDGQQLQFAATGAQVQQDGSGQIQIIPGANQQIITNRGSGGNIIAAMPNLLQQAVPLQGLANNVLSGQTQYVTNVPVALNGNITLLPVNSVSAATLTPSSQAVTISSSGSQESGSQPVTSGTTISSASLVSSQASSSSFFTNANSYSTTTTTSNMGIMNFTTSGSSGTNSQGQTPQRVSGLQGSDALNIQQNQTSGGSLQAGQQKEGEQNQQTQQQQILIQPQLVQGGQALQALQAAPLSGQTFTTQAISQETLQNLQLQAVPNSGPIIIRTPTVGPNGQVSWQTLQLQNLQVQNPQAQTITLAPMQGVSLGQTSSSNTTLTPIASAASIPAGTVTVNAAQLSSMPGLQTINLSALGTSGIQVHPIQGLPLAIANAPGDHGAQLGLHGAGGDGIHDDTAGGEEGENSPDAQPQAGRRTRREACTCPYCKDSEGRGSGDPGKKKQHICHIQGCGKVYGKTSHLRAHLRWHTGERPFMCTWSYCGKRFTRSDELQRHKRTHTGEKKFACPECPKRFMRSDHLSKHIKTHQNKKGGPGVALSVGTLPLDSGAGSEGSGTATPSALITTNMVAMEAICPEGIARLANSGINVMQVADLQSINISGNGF
Calls of active or inactive are those of the source. Rule for the calls: active = hit-call score of the fitted dose curve at least 0.9, where 1 is the maximum; inactive = score below 0.9.
Returns: one label drawn from True (active), False (inactive)

>>> category_label("CC1=CC(=O)/C(=C(/C)O)C(=O)O1")
"False"
>>> category_label("COc1cc(C(=O)NC2CCN(C)CC2)ccc1Nc1ncc2c(n1)N(C1CCCC1)CC(F)(F)C(=O)N2C")
"True"
>>> category_label("CC(C)(C)c1csc(-c2cc3cc(OCc4ccccc4CC(=O)O)ccc3o2)n1")
"False"
>>> category_label("CCN(Cc1cccc(S(=O)(=O)O)c1)c1ccc(C(=C2C=CC(=[N+](CC)Cc3cccc(S(=O)(=O)O)c3)C=C2)c2ccccc2S(=O)(=O)[O-])cc1")
"False"

# input Kindly provide the recorded test outcome for the following compound: `CCCCCCCCOc1ccc(C(=O)c2ccccc2)c(O)c1`
# output False

# input Kindly provide the recorded test outcome for the following compound: `CN1C(=O)CC[C@H]1c1cccnc1`
# output False

# input Kindly provide the recorded test outcome for the following compound: `OCCO`
# output False

# input Kindly provide the recorded test outcome for the following compound: OC12N=C(c3ccccc3)SC1Cc1cc(Cl)ccc12 (configuration not stated)
# output False

# input Kindly provide the recorded test outcome for the following compound: `COc1cccc([C@H](O)C2CCN(CCc3ccc(F)cc3)CC2)c1OC`
# output False

# input Kindly provide the recorded test outcome for the following compound: `CCCCCCCCCCCO`
# output False

# input Kindly provide the recorded test outcome for the following compound: `O=c1[nH]sc2ccccc12`
# output False

# input Kindly provide the recorded test outcome for the following compound: `CO[C@H]1/C=C/O[C@@]2(C)Oc3c(C)c(O)c4c(O)c(c(/C=N/N5CCN(C)CC5)c(O)c4c3C2=O)NC(=O)/C(C)=C\C=C\[C@H](C)[C@H](O)[C@@H](C)[C@@H](O)[C@@H](C)[C@H](OC(C)=O)[C@@H]1C`
# output False

# input Kindly provide the recorded test outcome for the following compound: `CN(C)C(=O)C1(N2CCCCC2)CCN(CC[C@@]2(c3ccc(Cl)c(Cl)c3)CN(C(=O)c3ccccc3)CCO2)CC1`
# output False

# input Kindly provide the recorded test outcome for the following compound: `CCCCCCCCN(C)CCCCCCCC`
# output False

# input Kindly provide the recorded test outcome for the following compound: `NC(=O)c1nc(-c2cccc(-c3cc(F)ccc3OCC(F)(F)C(F)(F)F)c2)n[nH]1`
# output True

# input Kindly provide the recorded test outcome for the following compound: `c1ccc2ccccc2c1`
# output False

# input Kindly provide the recorded test outcome for the following compound: `NCc1cccc(C2CCN(C(=O)c3ccc(C#Cc4ccccc4F)o3)CC2)c1`
# output False

# input Kindly provide the recorded test outcome for the following compound: `CCCCCc1ccc(N)cc1`
# output False

# input Kindly provide the recorded test outcome for the following compound: `Cc1cc2c(cc1C(F)(F)F)N(C(=O)Nc1ccc(Oc3cccnc3C)nc1)CC2`
# output False

# input Kindly provide the recorded test outcome for the following compound: `CN(C)c1ccc(C(=C2C=CC(=[N+](C)C)C=C2)c2ccc(N(C)C)cc2)cc1`
# output True

# input Kindly provide the recorded test outcome for the following compound: `CCCCCCCCCCCC[N+](C)(C)C`
# output False

# input Kindly provide the recorded test outcome for the following compound: `Cc1cn([C@H]2C[C@H](N=[N+]=[N-])[C@@H](CO)O2)c(=O)[nH]c1=O`
# output False

# input Kindly provide the recorded test outcome for the following compound: `O=c1ccc2ccccc2o1`
# output False

# input Kindly provide the recorded test outcome for the following compound: `CCOC(=O)O[C@H](C)OC(=O)c1ccc2c(c1)cc(C(=O)NC1CCN(C(C)C)CC1)n2Cc1cc(-c2ccc(Cl)s2)on1`
# output True

Data origin: PubChem BioAssay (EPA / NIEHS)
